tested on: MCF-7 breast adenocarcinoma cells; assay: MCF-7 Proliferation Assay (tritiated thymidine incorporation); assay type: cell-based; details: Homo sapiens, MCF7; 48 hours with drug, 4 hours tritiated thymidine pulse; read-out: IC50, inhibition of the growth of MCF-7 cells
MEASUREMENT_NAME: IC50

{"columns": ["COMPOUND", "MEASURED_TARGET", "ASSAY_RESULT"],
 "data": [
  ["O=C(c1ccc(OCCN2CCCCC2)nc1)c1c(-c2ccc(O)cc2)sc2cc(O)ccc12 [Prep. 1]", "MCF-7 breast adenocarcinoma cells", "0.01 µM"]
]}
